# Tested on: MT-2 cells
# Assay Procedure: Compounds' cytotoxicity assay in MT-2 cells (CellTiter-Glo)
# Type: cell-based
# Set-up: unit not given here
# Experimental Conditions: toxicity in MT-2 cells, 3 days
# Protocol: 3. Method for Compounds' Cytotoxicity Assay: The MT-2 cells are diluted to a needed concentration. 90 μl of the MT-2 cells suspension was added into 384-well plates containing 10 μl of the tested compounds. Compounds were dissolved in DMSO and tested as 11 points 3-fold serial dilutions. […] The Luciferase activity was measured by CellTiter-Glo® Luminescent Cell Viability Assay kit (Promega Corp., WI, USA). […]
Assay Readout: TC50 (PM)
Numbers only.

• CC(C)C1=C2[C@H]3CC[C@@H]4[C@@]5(C)CC[C@H](OC(=O)CC(C)(C)C(=O)O)C(C)(C)[C@@H]5CC[C@@]4(C)[C@]3(C)CC[C@@]2(c2cc(=O)n(-c3ccc(Cl)cc3)n2C)CC1=O [Compound 98-1] = 24
• CC(C)C1=C2[C@H]3CC[C@@H]4[C@@]5(C)CC[C@H](OC(=O)CC(C)(C)C(=O)O)C(C)(C)[C@@H]5CC[C@@]4(C)[C@]3(C)CC[C@@]2([C@@H](O)c2nnc(-c3ccc(Cl)cc3)o2)CC1=O [Compound 127-1] = 200
• CC(C)C1=C2[C@H]3CC[C@@H]4[C@@]5(C)CC[C@H](OC(=O)CC(C)(C)C(=O)O)C(C)(C)[C@@H]5CC[C@@]4(C)[C@]3(C)CC[C@@]2(Cc2nnc(-c3ccc(Cl)cc3F)o2)CC1=O [Compound 22-13] = 35
• CC(C)C1=C2[C@H]3CC[C@@H]4[C@@]5(C)CC[C@H](OC(=O)CC(C)(C)C(=O)O)C(C)(C)[C@@H]5CC[C@@]4(C)[C@]3(C)CC[C@@]2(Cc2nnc(-c3ccc(F)cn3)o2)CC1=O [Compound 22-18] = 48
• CC(C)C1=C2[C@H]3CC[C@@H]4[C@@]5(C)CC[C@H](OC(=O)CC(C)(C)C(=O)O)C(C)(C)[C@@H]5CC[C@@]4(C)[C@]3(C)CC[C@@]2(Cc2nnc(-c3ccc(Cl)cc3)o2)CC1=O [Compound 22-1] = 46
• CC(C)C1=C2[C@H]3CC[C@@H]4[C@@]5(C)CC[C@H](OC(=O)CC(C)(C)C(=O)O)C(C)(C)[C@@H]5CC[C@@]4(C)[C@]3(C)CC[C@@]2(c2cc(=O)n(CC(N)=O)n2C)CC1=O [Compound 91-6] = 48
• CC(C)C1=C2[C@H]3CC[C@@H]4[C@@]5(C)CC[C@H](OC(=O)CC(C)(C)C(=O)O)C(C)(C)[C@@H]5CC[C@@]4(C)[C@]3(C)CC[C@@]2(Cc2nnc(-c3cccnc3)o2)CC1=O [Compound 22-9] = 33

## Input What does the data say about its TC50 (PM)? Entry: CC(C)C1=C2[C@H]3CC[C@@H]4[C@@]5(C)CC[C@H](OC(=O)CC(C)(C)C(=O)O)C(C)(C)[C@@H]5CC[C@@]4(C)[C@]3(C)CC[C@@]2([C@H](O)c2nnc(-c3ccc(Cl)cc3)o2)CC1=O [Compound 127-2]
## Output 45

###

# Test system: MT-2 cells
# Assay Procedure: Compounds' cytotoxicity assay in MT-2 cells (CellTiter-Glo)
# Format: cell-based
# Set-up: unit not given here
# Experimental Conditions: toxicity in MT-2 cells, 3 days
Hi there, I'd appreciate the recorded TC50 (PM) for every entry that follows.
Give bare numbers.

// below: answered compounds
* CC(C)C1=C2[C@H]3CC[C@@H]4[C@@]5(C)CC[C@H](OC(=O)CC(C)(C)C(=O)O)C(C)(C)[C@@H]5CC[C@@]4(C)[C@]3(C)CC[C@@]2(Cc2nc(-c3ccc(Cl)cc3)no2)CC1=O | 26
* CC(C)C1=C2[C@H]3CC[C@@H]4[C@@]5(C)CC[C@H](OC(=O)CC(C)(C)C(=O)O)C(C)(C)[C@@H]5CC[C@@]4(C)[C@]3(C)CC[C@@]2(c2cc(=O)n(-c3ccc(C#N)cc3)n2C)CC1=O | 36
* CC(C)C1=C2[C@H]3CC[C@@H]4[C@@]5(C)CC[C@H](OC(=O)CC(C)(C)C(=O)O)C(C)(C)[C@@H]5CC[C@@]4(C)[C@]3(C)CC[C@@]2(c2cc(=O)n(Cc3ccc(Cl)cc3)n2C)CC1=O [91′-1] | 22

# context switch: different compound, same TC50 (PM)
## Input What does the data say about its TC50 (PM)? Entry: `CC(C)C1=C2[C@H]3CC[C@@H]4[C@@]5(C)CC[C@H](OC(=O)CC(C)(C)C(=O)O)C(C)(C)[C@@H]5CC[C@@]4(C)[C@]3(C)CC[C@@]2(c2nnc(-c3ccc(Cl)cn3)o2)CC1=O`
## Output 36
